Cited source: the SangsterLogP compilation

Measured logP of individual entries
# MEASUREMENT_DESCRIPTION: method code SF-AS, from Yamada, T.; Tsukamoto, Y.; Shimamura, H.; Banno, S.; Sato, M. (1983). Pyridazinones 4. synthesis anti secretory and anti ulcer activities of urea derivatives. Eur J Med Chem, 18(3)209-214.

>  <SMILES_INPUT>
O=C(NCCCCn1nc(-c2ccccc2)ccc1=O)NC1CCCCC1

>  <logP>
1.99

$$$$
>  <SMILES_INPUT>
CN(C)C(=O)NCCCCCn1nc(-c2ccccc2)ccc1=O

>  <logP>
1.74

$$$$
>  <SMILES_INPUT>
O=C(NCCCCCn1nc(-c2ccccc2)ccc1=O)NC1CCCCC1

>  <logP>
2.03

$$$$
>  <SMILES_INPUT>
NC(=O)NCCCCn1nc(-c2ccccc2)ccc1=O

>  <logP>
1.21

$$$$
>  <SMILES_INPUT>
CNC(=O)NCCCCCCn1nc(-c2ccccc2)ccc1=O

>  <logP>
1.31

$$$$
>  <SMILES_INPUT>
CCNC(=O)NCCCCn1nc(-c2ccccc2)ccc1=O

>  <logP>
1.83

$$$$
>  <SMILES_INPUT>
CCCNC(=O)NCCCCn1nc(-c2ccccc2)ccc1=O

>  <logP>
1.71

$$$$
>  <SMILES_INPUT>
CC(C)NC(=O)NCCCCn1nc(-c2ccccc2)ccc1=O

>  <logP>
1.91

$$$$
>  <SMILES_INPUT>
NC(=O)NCCCn1nc(-c2ccccc2)ccc1=O

>  <logP>
0.69

$$$$
>  <SMILES_INPUT>
CNC(=O)NCCCCCn1nc(-c2ccccc2)ccc1=O

>  <logP>
1.26

$$$$
>  <SMILES_INPUT>
NC(=O)NCCCCCCn1nc(-c2ccccc2)ccc1=O

>  <logP>
1.82

$$$$
>  <SMILES_INPUT>
CNC(=O)NCCCCCCCCn1nc(-c2ccccc2)ccc1=O

>  <logP>
0.84

$$$$
>  <SMILES_INPUT>
CNC(=O)NCCCn1nc(-c2ccccc2)ccc1=O

>  <logP>
1.16

$$$$

----------
# MEASUREMENT_DESCRIPTION: method code SF-AS, from Yamada, T.; Tsukamoto, Y.; Shimamura, H.; Banno, S.; Sato, M. (1983). Pyridazinones 4. synthesis anti secretory and anti ulcer activities of urea derivatives. Eur J Med Chem, 18(3)209-214.
Measured logP of individual entries
ENDPOINT_LABEL: logP

>  <SMILES_INPUT>
NC(=O)NCCn1nc(-c2ccccc2)ccc1=O

>  <ENDPOINT_LABEL>
logP

>  <MEASURED_NUMBER>
0.52

$$$$
>  <SMILES_INPUT>
CCN(CC)C(=O)NCCCCCCn1nc(-c2ccccc2)ccc1=O

>  <ENDPOINT_LABEL>
logP

>  <MEASURED_NUMBER>
1.85

$$$$
>  <SMILES_INPUT>
CN(C)C(=O)NCCCCn1nc(-c2ccccc2)ccc1=O

>  <ENDPOINT_LABEL>
logP

>  <MEASURED_NUMBER>
1.58

$$$$
>  <SMILES_INPUT>
CCNC(=O)NCCCn1nc(-c2ccccc2)ccc1=O

>  <ENDPOINT_LABEL>
logP

>  <MEASURED_NUMBER>
1.68

$$$$
>  <SMILES_INPUT>
Cc1ccc(S(=O)(=O)NC(=O)NCCCCn2nc(-c3ccccc3)ccc2=O)cc1

>  <ENDPOINT_LABEL>
logP

>  <MEASURED_NUMBER>
1.77

$$$$
>  <SMILES_INPUT>
CN(C)C(=O)NCCCCCCn1nc(-c2ccccc2)ccc1=O

>  <ENDPOINT_LABEL>
logP

>  <MEASURED_NUMBER>
1.45

$$$$

----------
Measured logP of individual entries
# MEASUREMENT_DESCRIPTION: method code SF-AS, from Yamada, T.; Tsukamoto, Y.; Shimamura, H.; Banno, S.; Sato, M. (1983). Pyridazinones 4. synthesis anti secretory and anti ulcer activities of urea derivatives. Eur J Med Chem, 18(3)209-214.
ENDPOINT_LABEL: logP

>  <SMILES_INPUT>
NC(=O)NCCCCCn1nc(-c2ccccc2)ccc1=O

>  <MEASURED_NUMBER>
1.08

$$$$
>  <SMILES_INPUT>
CNC(=O)NCCCCn1nc(-c2ccccc2)ccc1=O

>  <MEASURED_NUMBER>
1.23

$$$$
>  <SMILES_INPUT>
CNC(=O)NCCn1nc(-c2ccccc2)ccc1=O

>  <MEASURED_NUMBER>
0.39

$$$$
>  <SMILES_INPUT>
CCN(CC)C(=O)NCCCn1nc(-c2ccccc2)ccc1=O

>  <MEASURED_NUMBER>
1.72

$$$$
>  <SMILES_INPUT>
CN(C)C(=O)NCCCn1nc(-c2ccccc2)ccc1=O

>  <MEASURED_NUMBER>
1.61

$$$$
>  <SMILES_INPUT>
CNC(=O)NCCCCCCCn1nc(-c2ccccc2)ccc1=O

>  <MEASURED_NUMBER>
1.06

$$$$
>  <SMILES_INPUT>
O=C(NCCCCn1nc(-c2ccccc2)ccc1=O)Nc1ccccc1

>  <MEASURED_NUMBER>
2.32

$$$$
>  <SMILES_INPUT>
CCNC(=O)NCCCCCn1nc(-c2ccccc2)ccc1=O

>  <MEASURED_NUMBER>
1.76

$$$$
>  <SMILES_INPUT>
CC(C)(C)NC(=O)NCCCCn1nc(-c2ccccc2)ccc1=O

>  <MEASURED_NUMBER>
2.07

$$$$
>  <SMILES_INPUT>
CCCCNC(=O)NCCCCn1nc(-c2ccccc2)ccc1=O

>  <MEASURED_NUMBER>
2.2

$$$$
>  <SMILES_INPUT>
CCNC(=O)NCCCCCCn1nc(-c2ccccc2)ccc1=O

>  <MEASURED_NUMBER>
1.81

$$$$
>  <SMILES_INPUT>
CCN(CC)C(=O)NCCCCn1nc(-c2ccccc2)ccc1=O

>  <MEASURED_NUMBER>
1.89

$$$$
